system.name: Cytochrome P450 2C19 (Homo sapiens) (UniProt P33261)
Sequence (P33261 whole entry, looked up): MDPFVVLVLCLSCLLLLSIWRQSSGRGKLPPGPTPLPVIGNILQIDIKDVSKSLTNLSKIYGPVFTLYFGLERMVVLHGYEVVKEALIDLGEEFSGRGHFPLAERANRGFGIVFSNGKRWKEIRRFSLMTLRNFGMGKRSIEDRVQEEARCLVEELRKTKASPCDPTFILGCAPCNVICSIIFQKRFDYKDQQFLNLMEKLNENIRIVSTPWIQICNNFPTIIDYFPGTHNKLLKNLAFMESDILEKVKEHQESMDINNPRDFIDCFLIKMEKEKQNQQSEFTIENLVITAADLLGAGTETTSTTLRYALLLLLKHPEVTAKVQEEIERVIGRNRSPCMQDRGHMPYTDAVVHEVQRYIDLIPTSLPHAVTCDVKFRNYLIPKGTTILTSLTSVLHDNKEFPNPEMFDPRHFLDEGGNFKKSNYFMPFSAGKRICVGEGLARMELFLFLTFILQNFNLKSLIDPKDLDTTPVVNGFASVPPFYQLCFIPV
method.summary: Cytochrome panel assay with activity outcomes
run.conditions: recombinant CYP, pro-luciferin dealkylation, luminescence, p450-cyp2c19; series mostly up to 57.1 µM
Hit rate of the full screen: of about 16,000 compounds, about 5,800 (36%) were called active. About 23% were inconclusive and are not listed. Calls come from the whole dose curve; as a rule, active = well fitted curve in the direction sought with a large enough effect; inconclusive = small, poorly fitted or top-dose-only effect, or effect the other way; inactive = no such curve, though single readings can be large or run the other way. This is one part of the list.
Result category, one only: active, inactive

>  <compound>
FC(F)(F)c1ccccc1-c1ccc2ncnc(NCc3cccnc3)c2c1

>  <label.class>
active

$$$$
>  <compound>
CN(C)c1nc2c(c(=O)[nH]c(=O)n2C)n1Cc1ccccc1Br

>  <label.class>
inactive

$$$$
>  <compound>
COc1ccc(-n2cnc3sc(-c4ccccc4)cc3c2=O)cc1

>  <label.class>
active

$$$$

# input Recorded test outcome, item COCCNC(=O)CCCCCn1c(=S)[nH]c2ccccc2c1=O
# output active

# input Recorded test outcome, item COc1ncc2nc(C)c(=O)n(CCc3ccccc3)c2n1
# output active

# input Recorded test outcome, item Cc1nc2cnc(N3CCOCC3)nc2n(C)c1=O
# output inactive

# input Recorded test outcome, item CNc1cc(-c2ccccc2C(F)(F)F)ncn1
# output inactive

# input Recorded test outcome, item Cc1cc2ccccn2c1C(=O)c1ccc(Cl)cc1
# output active

# input Recorded test outcome, item CSc1ccc(CNc2ccc(C)c(C)c2)cc1
# output active

# input Recorded test outcome, item CCC1CCCCN1CCn1c(=S)[nH]c2cc(OC)c(OC)cc2c1=O (configuration not stated)
# output inactive
